Values compiled from BindingDB's records for patent US20250313563.

- SYSTEM NAME: Glycogen synthase kinase-3 alpha (Homo sapiens)
- Sequence (P49840 whole entry): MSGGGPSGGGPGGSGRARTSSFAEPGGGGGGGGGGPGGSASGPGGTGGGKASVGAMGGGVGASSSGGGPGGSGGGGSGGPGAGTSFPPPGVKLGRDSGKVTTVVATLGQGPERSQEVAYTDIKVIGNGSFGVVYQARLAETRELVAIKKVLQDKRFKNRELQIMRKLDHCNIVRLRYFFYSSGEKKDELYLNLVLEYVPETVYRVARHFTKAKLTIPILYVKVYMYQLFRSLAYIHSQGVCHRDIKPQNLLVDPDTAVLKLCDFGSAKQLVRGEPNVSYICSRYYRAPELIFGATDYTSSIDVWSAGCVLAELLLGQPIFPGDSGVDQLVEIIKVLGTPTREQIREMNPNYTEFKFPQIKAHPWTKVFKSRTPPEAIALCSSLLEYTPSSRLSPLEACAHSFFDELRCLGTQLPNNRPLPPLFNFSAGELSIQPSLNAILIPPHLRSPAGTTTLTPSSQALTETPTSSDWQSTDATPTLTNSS
pIC50: −log10 of the molar value.
# pIC50 per record follows

> print(dat)
                                   compound  value.type  obs.value
1  CC1(C)CC(=O)C2=C(C1)NC1=C(CN=N1)C21CCN(S(=O)(=O)c2cnn(-c3ccccc3)c2)CC1       pIC50     > 7.00

Provide the documented pIC50 with Glycogen synthase kinase-3 alpha (Homo sapiens) as the system for CC[C@]1(c2ccccc2)C2=CN=NC2NC2=C1C(=O)C[C@@](C)(C(F)(F)F)C2 (stereo partly specified) 6.00 to 7.00

Next record, please: CCC1(c2cccc(C(F)(F)F)c2)C2=CN=NC2NC2=C1C(=O)NC(C)C2 (stereo unspecified) > 7.00

----------
- SYSTEM NAME: Glycogen synthase kinase-3 beta (Homo sapiens)
pIC50: −log10 of the molar value.
# pIC50 per record follows

> print(dat)
                                   molecule                               system.name  value.type     obs.value
1  CC[C@H]1C[C@]2(CO1)C1=C(N=NC1)NC1=C2C(=O)CC(C)(C)C1  Glycogen synthase kinase-3 beta (Homo sapiens)       pIC50  5.30 to 6.00
2  CC[C@]1(c2cccc(-c3cnn4ccncc34)c2)C2=CN=NC2NC2=C1C(=O)NC(C)(C)C2 (some centres undefined)  Glycogen synthase kinase-3 beta (Homo sapiens)       pIC50        < 5.30
3  CC1(C)CC2=C(C(=O)N1)[C@@](C)(c1cccc(S(C)(=O)=O)c1)C1=C(N=NC1C1CC1)N2 (some centres undefined)  Glycogen synthase kinase-3 beta (Homo sapiens)       pIC50  6.00 to 7.00

Proceed to the following item.
What does the record list as pIC50 for CCC1(c2cccc(N3CCCCC3)c2)C2=C(CC(C)(C)NC2=O)NC2N=NC(C)=C21 (centres undefined) ? 6.00 to 7.00

----------
- SYSTEM NAME: Glycogen synthase kinase-3 beta (Homo sapiens, UniProt P49841)
- Sequence (P49841 whole entry): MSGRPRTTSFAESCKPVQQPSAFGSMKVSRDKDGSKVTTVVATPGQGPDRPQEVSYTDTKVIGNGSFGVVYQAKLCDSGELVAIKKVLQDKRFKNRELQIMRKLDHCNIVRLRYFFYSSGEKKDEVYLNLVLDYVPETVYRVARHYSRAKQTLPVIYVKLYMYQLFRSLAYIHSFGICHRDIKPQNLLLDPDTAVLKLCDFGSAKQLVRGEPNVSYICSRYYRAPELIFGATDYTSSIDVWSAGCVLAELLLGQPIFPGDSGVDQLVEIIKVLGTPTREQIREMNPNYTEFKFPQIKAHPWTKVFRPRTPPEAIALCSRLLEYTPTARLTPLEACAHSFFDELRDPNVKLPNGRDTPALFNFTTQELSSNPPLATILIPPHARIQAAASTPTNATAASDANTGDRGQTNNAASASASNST
pIC50: −log10 of the molar value.
VALUE TYPE: pIC50

> print(dat)
                                   compound     obs.value
1  CC[C@]1(c2cccc(N3C[C@H](C)[C@@H](C)C3)c2)C2=CN=NC2NC2=C1C(=O)CC(C)(C)C2 (stereo partly drawn)  5.30 to 6.00
2  CC[C@]1(c2cccc(-c3ccnc(C)c3OC)c2)C2=CN=NC2NC2=C1C(=O)CC(C)(C)C2 (stereo partly drawn)        < 5.30

What does the record list as pIC50 for CCCn1nccc1-c1cccc(C2(CC)C3=CN=NC3NC3=C2C(=O)CC(C)(C)C3)c1 (stereo not drawn) ? > 7.00

----------
- SYSTEM NAME: Glycogen synthase kinase-3 beta (Homo sapiens, UniProt P49841)
# IC50 per record follows

> print(dat)
                                   compound  value.type       obs.value
1  CC[C@@]1(c2cccc(C(F)(F)F)c2)C2=CN=NC2NC2=C1C(=O)N(CC(F)(F)F)CC2 (stereo partly drawn) [US20250313563, Compound 912206]        IC50  100 to 1000 nM
2  CC1(C)CC(=O)C2=C(C1)NC1=C(CN=N1)[C@]21C[C@H](OCc2ccccc2)C1 [US20250313563, Compound 909210]        IC50  100 to 1000 nM

Proceed to the following item.
What does the record list as IC50 for CC[C@]1(c2cccc(C(F)(F)F)c2)C2=CN=NC2NC2=C1C(=O)N(c1ccccn1)CC2 (stereo partly drawn) [US20250313563, Compound 949310] ? 100 to 1000 nM
